The following compounds are listed with their measured ELISA absorbance at 492 nm values.
tested on: biomarker (antibody) in serum samples from patients with symptoms of tuberculosis; type: binding, human; details: serum sample 38 TB−
Marks after values point to notes of the source that are not given here.
endpoint_name: ELISA absorbance at 492 nm

compound | endpoint_name | result
CCCCCCCCCCCCCCCCCCCCCC[C@@H](C(=O)OC[C@H]1O[C@H](OC)[C@@H](O)[C@@H]1O)[C@H](O)CCCCCCCCCCCCCCCCC[C@H]1C[C@H]1CCCCCCCCCCCCCCCC[C@@H](OC)[C@@H](C)CCCCCCCCCCCCCCCCCC [Antigen E] | ELISA absorbance at 492 nm | 0.40*
CCCCCCCCCCCCCCCCCCCCCC[C@@H](C(=O)OC[C@H]1O[C@H](OC)[C@@H](O)[C@@H]1O)[C@H](O)CCCCCCCCCCCCCCCCC[C@@H]1C[C@@H]1CCCCCCCCCCCCCCCC[C@@H](OC)[C@@H](C)CCCCCCCCCCCCCCCCCC [Antigen A] | ELISA absorbance at 492 nm | 0.29*
CCCCCCCCCCCCCCCCCCCCCC[C@@H](C(=O)OC[C@H]1O[C@H](OC)[C@@H](O)[C@@H]1O)[C@H](O)CCCCCCCCCCCCCCC[C@@H]1C[C@@H]1CCCCCCCCCCCCCCCCCCC(=O)C(C)CCCCCCCCCCCCCCCCCC (stereo partly drawn) [Antigen C] | ELISA absorbance at 492 nm | 0.43*

###

tested on: biomarker (antibody) in serum samples from patients with symptoms of tuberculosis; format: binding, human; conditions: serum sample 24 TB−
Marks after values point to notes of the source that are not given here.
endpoint_name: ELISA absorbance at 492 nm

compound | measured_on | endpoint_name | result
CCCCCCCCCCCCCCCCCCCCCC[C@@H](C(=O)OC[C@H]1O[C@H](OC)[C@@H](O)[C@@H]1O)[C@H](O)CCCCCCCCCCCCCCCCC[C@@H]1C[C@@H]1CCCCCCCCCCCCCCCC[C@@H](OC)[C@@H](C)CCCCCCCCCCCCCCCCCC [Antigen A] | biomarker (antibody) in serum samples from patients with symptoms of tuberculosis | ELISA absorbance at 492 nm | 0.29*
CCCCCCCCCCCCCCCCCCCCCC[C@@H](C(=O)OC[C@H]1O[C@H](OC)[C@@H](O)[C@@H]1O)[C@H](O)CCCCCCCCCCCCCCC[C@@H]1C[C@@H]1CCCCCCCCCCCCCCCCCCC(=O)C(C)CCCCCCCCCCCCCCCCCC (stereo partly drawn) [Antigen C] | biomarker (antibody) in serum samples from patients with symptoms of tuberculosis | ELISA absorbance at 492 nm | 0.53*
CCCCCCCCCCCCCCCCCCCCCCCC[C@@H](C(=O)OC[C@H]1O[C@H](OC)[C@@H](O)[C@@H]1O)[C@H](O)CCCCCCCCCCCCCCCCC[C@@H]1C[C@@H]1CCCCCCCCCCCCCCCC[C@@H](OC)[C@@H](C)CCCCCCCCCCCCCCCCCC [Antigen B] | biomarker (antibody) in serum samples from patients with symptoms of tuberculosis | ELISA absorbance at 492 nm | 0.81*

###

test system: biomarker (antibody) in serum samples from patients with symptoms of tuberculosis; format: binding, human; settings: serum sample 47 TB−
Marks after values point to notes of the source that are not given here.
endpoint_name: ELISA absorbance at 492 nm

compound | result
CCCCCCCCCCCCCCCCCCCCCC[C@@H](C(=O)OC[C@H]1O[C@H](OC)[C@@H](O)[C@@H]1O)[C@H](O)CCCCCCCCCCCCCCC[C@@H]1C[C@@H]1CCCCCCCCCCCCCCCCCCC(=O)C(C)CCCCCCCCCCCCCCCCCC (stereo partly drawn) [Antigen C] | 0.56*
CCCCCCCCCCCCCCCCCCCCCC[C@@H](C(=O)OC[C@H]1O[C@H](OC)[C@@H](O)[C@@H]1O)[C@H](O)CCCCCCCCCCCCCCCCC[C@@H]1C[C@@H]1CCCCCCCCCCCCCCCC[C@@H](OC)[C@@H](C)CCCCCCCCCCCCCCCCCC [Antigen A] | 0.34*
CCCCCCCCCCCCCCCCCCCCCC[C@@H](C(=O)OC[C@H]1O[C@H](OC)[C@@H](O)[C@@H]1O)[C@H](O)CCCCCCCCCCCCCCCCC[C@H]1C[C@H]1CCCCCCCCCCCCCCCC[C@@H](OC)[C@@H](C)CCCCCCCCCCCCCCCCCC [Antigen E] | 0.41*

Data origin: patent US11162944B2
